assay: Penetration ratio, ratio of AUC (0 to 4 hrs) in Sprague-Dawley rat CSF to AUC (0 to 4 hrs) in Sprague-Dawley rat unbound plasma at […], sc; type: ADME, organism-based; design: dose 3.2 mg/kg, route subcutaneous; conditions: read-out: Ratio AUC
assay-readout: Kp uu

Ask: Quick one: Kp uu for CC(C)CNCc1ccc(-c2ccccc2S(=O)(=O)N2CCCC2)cc1 ?
Reply: 1.2

---

test: Permeability of the compound by PAMPA; type: ADME; settings: read-out: permeability
assay-readout: Papp (×10⁻⁶ cm/s)
Supply the numeric figure in ×10⁻⁶ cm/s, leaving out any unit text.

Ask: Quick one: Papp for CC(C)CNCc1ccc(-c2ccccc2S(=O)(=O)N2CCCC2)cc1 [PF-04455242] ?
Reply: 19

---

assay: Solubility of compound at pH 5.5; assay type: physicochemical; conditions: buffer
assay-readout: solubility

Ask: Quick one: solubility for CC(C)CNCc1ccc(-c2ccccc2S(=O)(=O)N2CCCC2)cc1 ?
Reply: > 8530 µg/mL
